biological target: UniProt:P08588; test: cAMP Gs dynamic HTRF assay, β1 expressing CHO cells; assay type: cell-based; conditions: B1-AR; CHO-K cells; read-out: Average EC50 [Receptor subtype: B1-AR; Cell type: CHO-K]
Sequence (P08588 whole entry, species assumed): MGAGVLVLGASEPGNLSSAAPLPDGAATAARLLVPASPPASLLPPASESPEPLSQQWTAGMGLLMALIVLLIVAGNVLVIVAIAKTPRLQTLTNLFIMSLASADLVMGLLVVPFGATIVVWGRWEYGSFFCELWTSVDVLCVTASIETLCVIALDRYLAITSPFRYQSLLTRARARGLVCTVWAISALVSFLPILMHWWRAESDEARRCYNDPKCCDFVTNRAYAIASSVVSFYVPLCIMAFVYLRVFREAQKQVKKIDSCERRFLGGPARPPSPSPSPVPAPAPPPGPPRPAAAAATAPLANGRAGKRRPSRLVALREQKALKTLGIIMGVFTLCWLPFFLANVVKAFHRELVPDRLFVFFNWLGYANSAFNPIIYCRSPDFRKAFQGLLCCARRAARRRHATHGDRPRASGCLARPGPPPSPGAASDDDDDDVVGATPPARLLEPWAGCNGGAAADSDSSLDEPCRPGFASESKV
pEC50: −log10 of the molar value.
property-label: pEC50

| compound | property-label | result-value |
| --- | --- | --- |
| CC(C)(C)NC[C@H](O)c1cncc(C(F)(F)F)n1 [Compound 03-38] | pEC50 | 6.00 to 7.00 |
| CC(C)c1ncccc1[C@@H](O)CNC(C)(C)C [Compound 03-51] | pEC50 | < 6.00 |
| COc1ccc(C[C@@H](C)NC[C@@H](O)c2cccc(C(F)(F)F)n2)cc1 [Compound 03-16] | pEC50 | 6.00 to 7.00 |
| CC(C)(C)NC[C@H](O)c1cccnc1C1CCCC1 [Compound 03-53] | pEC50 | < 6.00 |
| CC(C)(C)NCC(O)c1cc(C#N)cc(C(F)(F)F)n1 (centres unmarked) [Compound 03-181] | pEC50 | < 6.00 |

Q: Hi! What's the reported pEC50 for CC(C)(C)NC[C@H](O)c1cccc(-c2cccc(Cl)c2)n1 [Compound 03-129] on UniProt:P08588?
A: 7.00 to 8.00

Q: Hi! What's the reported pEC50 for CC(C)(C)NCC(O)c1cccnc1Cl (centres unmarked) [Compound 03-114] on UniProt:P08588?
A: 6.00 to 7.00

Q: Hi! What's the reported pEC50 for CC(C)(C)NC[C@@H](O)c1cccc(C#N)n1 [Compound 03-48] on UniProt:P08588?
A: < 6.00

Q: Hi! What's the reported pEC50 for CC(C)(C)NC[C@H](O)c1cccc(-c2cccnc2)n1 [Compound 03-151] on UniProt:P08588?
A: 7.00 to 8.00

Q: Hi! What's the reported pEC50 for CN(C)C(=O)c1cccc([C@@H](O)CNC(C)(C)C)n1 [Compound 03-7] on UniProt:P08588?
A: < 6.00

Q: Hi! What's the reported pEC50 for CC(C)(C)NC[C@@H](O)c1ccc(C(F)(F)F)cn1 [Compound 03-125] on UniProt:P08588?
A: 6.00 to 7.00

Q: Hi! What's the reported pEC50 for CC(C)(C)NC[C@H](O)c1ccc(C(F)(F)F)cn1 [Compound 03-126] on UniProt:P08588?
A: 7.00 to 8.00

Q: Hi! What's the reported pEC50 for Cc1ncccc1[C@@H](O)CNC(C)(C)C [Compound 03-115] on UniProt:P08588?
A: < 6.00

Q: Hi! What's the reported pEC50 for CC(C)(C)NC[C@H](O)c1cccc(-c2ccc(Cl)cc2)n1 [Compound 03-119] on UniProt:P08588?
A: 6.00 to 7.00

Q: Hi! What's the reported pEC50 for CC(C)(C)NC[C@H](O)c1ccc2cccc(C(F)(F)F)c2n1 [Compound 03-163] on UniProt:P08588?
A: > 8.00

Q: Hi! What's the reported pEC50 for CC1(NC[C@@H](O)c2cccc(C(F)(F)F)n2)CCC1 [Compound 03-12] on UniProt:P08588?
A: < 6.00

Q: Hi! What's the reported pEC50 for Cc1cc([C@H](O)CNC(C)(C)C)nc(C(F)(F)F)c1 [Compound 03-20] on UniProt:P08588?
A: < 6.00

Q: Hi! What's the reported pEC50 for CC(C)(C)NC[C@H](O)c1cccc(N2CCOCC2)n1 [Compound 03-157] on UniProt:P08588?
A: > 8.00

Q: Hi! What's the reported pEC50 for CC(C)(C)NC[C@H](O)c1cccc(-n2cccc2)n1 [Compound 03-123] on UniProt:P08588?
A: > 8.00

Q: Hi! What's the reported pEC50 for CC(C)(C)NC[C@H](O)c1cccnc1C1CC1 [Compound 03-54] on UniProt:P08588?
A: 6.00 to 7.00

Q: Hi! What's the reported pEC50 for CC(C)Oc1ncccc1[C@@H](O)CNC(C)(C)C [Compound 03-57] on UniProt:P08588?
A: 6.00 to 7.00

Q: Hi! What's the reported pEC50 for CC(C)(C)NC[C@@H](O)c1cccc(-c2cccnc2)n1 [Compound 03-152] on UniProt:P08588?
A: < 6.00

Q: Hi! What's the reported pEC50 for Cc1ccccc1-c1cccc([C@H](O)CNC(C)(C)C)n1 [Compound 03-150] on UniProt:P08588?
A: < 6.00
